B1: CPEB3 Ribozyme (parent)
chain: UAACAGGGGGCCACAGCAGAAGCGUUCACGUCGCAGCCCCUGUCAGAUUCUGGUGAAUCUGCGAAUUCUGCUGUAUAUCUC

Variants of: B1
Assay: self-cleavage, relative activity (ratio to wild type); higher = more cleavage; in vitro, sequencing
Label scheme for self-cleavage: lower than 0.4 is false (0), 0.4 and above is true (1).

Problem: Check if self-cleavage >= 0.4 (inclusive). Item: UAACAGGGGGCCACAGCAGAAACGUUCACGUCGCAGCCCCUGUCAGAUUCUGGCGAAUCUGCGAAUUCUGCUGUAUAUCUC [G22A U54C]
Solution: false (0)

Problem: Textbook exercise: given the entry UAACAGGGGGCCACAGCAGAAGCGUUUACGUCGCAGCCCCUGCCAGAUUCUGGUGAAUCUGCGAAUUCUGCUGUAUAUCUC [C27U U43C] , state whether its self-cleavage is greater than or equal to 0.4.
Solution: false (0)

Problem: hey, is self-cleavage for this one >= 0.4? UAACAGGGGGCCACAGCAGGAGCGUUCACGUCGCAGCCCCUGUCAGAUUCUGGUGAAUCUGCGAAUUCUGCUGUAUAUCUC [A20G]
Solution: true (1)

Problem: Exam item: decide whether the reported self-cleavage for UAACAGGGGGCCACAGCAGAAGCGUUAACGUCGCAGCCCCUGUCAUAUUCUGGUGAAUCUGCGAAUUCUGCUGUAUAUCUC [C27A G46U] is at least 0.4.
Solution: false (0)

Problem: Please tell me: is the variant UAACAGGGGGCCACAGCAGAAGCGUUCACGUCGCAGCCCCUGUCAGAUACUGGUGAAUCUGCGAAUUCUACUGUAUAUCUC [U49A G70A] at or over 0.4 in terms of self-cleavage?
Solution: true (1)

Problem: Hello, I need to know if UAACAGGGGGCCACAGCAGAAGCGUUCACGUCGCAGCCCCUGUCAGAUUCUGGUGAAUCUGCGAAUGUUGCUGUAUAUCUC [U67G C68U] has measured self-cleavage not below 0.4. Thanks!
Solution: true (1)

Problem: For this variant, is measured self-cleavage 0.4 or higher? UAACAGGGGGCCACAGCAGAAGCGUUCACGUCGCAGCCCCUGUCAGAUUCUGGUGAAUCUGCGAACUCUGCUGUAUAUCUC [U66C]
Solution: true (1)

Problem: Dear colleague, could you confirm whether UAACAGGGGGCCACAGCAGAAGCGUUCACGCCGCAGCCCCUGUCUGAUUCUGGUGAAUCUGCGAAUUCUGCUGUAUAUCUC [U31C A45U] has self-cleavage at or above 0.4?
Solution: false (0)

Problem: I'd appreciate it if you could say whether UAACAGGGGGCCACAGCAGAAGCGUUCCCGUCGCAGCCCCUGUCAGAUUCUGGUGAAUCUGCGAAUACUGCUGUAUAUCUC [A28C U67A] has self-cleavage at least equal to 0.4.
Solution: true (1)

Problem: Say whether UGACAGGGGGCCACAGCAGAAGCGUUCACGUCGCAGCCCCAGUCAGAUUCUGGUGAAUCUGCGAAUUCUGCUGUAUAUCUC [A2G U41A] shows self-cleavage of 0.4 or more.
Solution: true (1)

Problem: Would you say UAACAGGGGGCCACAGCAGAAGCGCUCACGUCGCAGCCCCUGCCAGAUUCUGGUGAAUCUGCGAAUUCUGCUGUAUAUCUC [U25C U43C] shows self-cleavage at minimum 0.4?
Solution: false (0)

Problem: Textbook exercise: given the entry UAACAGGGGGCCACAGCAGAAGCGUUUACGUCGCAGCCCCUGUCAGAUUCUGGUGAAUCUGCGAAUUCUGCUGUAUUUCUC [C27U A77U] , state whether its self-cleavage is greater than or equal to 0.4.
Solution: false (0)

Problem: Form field: self-cleavage at least 0.4? Entry: UAACAGGGGGCCACAGUAGAAGCGUUCACGUCGCAGCCCCUGUCAGAUUCUGGUGAAUCUGCGAAUUCUGCUGAAUAUCUC [C17U U74A]
Solution: true (1)
